All figures here come from patent EP0734445B1.

target: wild type AKIII (Escherichia coli, UniProt P08660); construct: made in house; host or cells: E. coli (pBT436 in AK-deficient strain Gif106M1); assay: Inhibition of AKIII by lysine; assay type: biochemical, E. coli; conditions: read-out: 50% inhibited, lysine concentration
Sequence (P08660 2-449): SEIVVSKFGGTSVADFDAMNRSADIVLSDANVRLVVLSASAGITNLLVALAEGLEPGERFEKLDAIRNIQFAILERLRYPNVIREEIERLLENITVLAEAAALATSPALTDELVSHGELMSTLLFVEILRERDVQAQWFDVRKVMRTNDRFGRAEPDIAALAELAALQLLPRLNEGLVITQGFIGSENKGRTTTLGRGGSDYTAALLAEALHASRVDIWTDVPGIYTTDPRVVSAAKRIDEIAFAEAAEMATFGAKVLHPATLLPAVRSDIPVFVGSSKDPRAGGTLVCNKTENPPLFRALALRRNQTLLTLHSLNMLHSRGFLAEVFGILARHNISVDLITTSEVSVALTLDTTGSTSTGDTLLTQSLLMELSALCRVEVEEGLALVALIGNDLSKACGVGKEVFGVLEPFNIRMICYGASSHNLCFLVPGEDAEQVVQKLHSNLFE

Smiles Repr	IC50
NCCCC[C@H](N)C(=O)O	300 to 400 µM

====

molecular target: E. coli DHDPS (Escherichia coli, UniProt P0A6L2, F2V); construct: An 880 bp Nco I-Kpn I fragment from pBT443 containing the entire ecodapA coding region; assay: DHDPS enzyme activity assay
Sequence (P0A6L2 whole entry F2V, the tested form may be a part): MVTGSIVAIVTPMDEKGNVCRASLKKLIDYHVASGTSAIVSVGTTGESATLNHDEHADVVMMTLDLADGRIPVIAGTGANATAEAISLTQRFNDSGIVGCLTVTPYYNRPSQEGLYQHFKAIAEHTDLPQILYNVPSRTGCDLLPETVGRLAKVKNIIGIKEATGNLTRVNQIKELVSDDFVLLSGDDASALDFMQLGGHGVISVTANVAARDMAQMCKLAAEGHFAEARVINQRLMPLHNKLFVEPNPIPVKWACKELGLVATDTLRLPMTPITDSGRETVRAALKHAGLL
Test Readout: IC50

Smiles Repr	Experimental Result
NCCCC[C@H](N)C(=O)O	~500 µM
